Data provenance: ChEMBL document CHEMBL4340570

pIC50: −log10 of the molar value.
Observed pIC50 values for Acetylcholinesterase (Electrophorus electricus, UniProt O42275) are listed in what follows.

structure.notation | study.target | pIC50
O=c1c2ccccc2nnn1Cc1cc[n+](Cc2ccccc2Cl)cc1 | Acetylcholinesterase (Electrophorus electricus, UniProt O42275) | 5.86
O=c1c2ccccc2nnn1Cc1ccc[n+](Cc2c(Cl)cccc2Cl)c1 | Acetylcholinesterase (Electrophorus electricus, UniProt O42275) | 6.14
O=c1c2ccccc2nnn1Cc1cc[n+](Cc2ccccc2[N+](=O)[O-])cc1 | Acetylcholinesterase (Electrophorus electricus, UniProt O42275) | 5.89
O=c1c2ccccc2nnn1Cc1ccc[n+](Cc2ccccc2Br)c1 | Acetylcholinesterase (Electrophorus electricus, UniProt O42275) | 6.82
O=c1c2ccccc2nnn1Cc1cc[n+](Cc2ccccc2F)cc1 | Acetylcholinesterase (Electrophorus electricus, UniProt O42275) | 5.77
O=c1c2ccccc2nnn1Cc1ccc[n+](Cc2ccc(Br)cc2)c1 | Acetylcholinesterase (Electrophorus electricus, UniProt O42275) | 6.08
O=c1c2ccccc2nnn1Cc1ccc[n+](Cc2cccc(F)c2)c1 | Acetylcholinesterase (Electrophorus electricus, UniProt O42275) | 6.77
O=c1c2ccccc2nnn1Cc1cc[n+](Cc2ccccc2)cc1 | Acetylcholinesterase (Electrophorus electricus, UniProt O42275) | 5.87
O=c1c2ccccc2nnn1Cc1cc[n+](Cc2ccc(F)cc2)cc1 | Acetylcholinesterase (Electrophorus electricus, UniProt O42275) | 5.79
O=c1c2ccccc2nnn1Cc1ccc[n+](Cc2ccc([N+](=O)[O-])cc2)c1 | Acetylcholinesterase (Electrophorus electricus, UniProt O42275) | 6.80
O=c1c2ccccc2nnn1Cc1ccc[n+](Cc2ccc(F)cc2)c1 | Acetylcholinesterase (Electrophorus electricus, UniProt O42275) | 6.82
